MEASUREMENT_PROTOCOL: MTT assay, cell viability
APPLIED_CONDITIONS: male, human, peripheral blood mononuclear cells (PBMCs)

[
  {
    "SAMPLE_SMILES": "O=c1[nH]cc(F)c(=O)[nH]1",
    "viability at 72 h, 100 µg/mL": "64.8%"
  }
]

###

MEASUREMENT_PROTOCOL: MTT assay, cell viability
APPLIED_CONDITIONS: male, human, peripheral blood mononuclear cells (PBMCs)

[
  {
    "SAMPLE_SMILES": "OC[C@H]1O[C@@H]2O[C@H]3[C@H](O)[C@@H](O)[C@@H](O[C@H]4[C@H](O)[C@@H](O)[C@@H](O[C@H]5[C@H](O)[C@@H](O)[C@@H](O[C@H]6[C@H](O)[C@@H](O)[C@@H](O[C@H]7[C@H](O)[C@@H](O)[C@@H](O[C@H]8[C@H](O)[C@@H](O)[C@@H](O[C@H]1[C@H](O)[C@H]2O)O[C@@H]8CO)O[C@@H]7CO)O[C@@H]6CO)O[C@@H]5CO)O[C@@H]4CO)O[C@@H]3CO",
    "UNIT_TEXT": "%",
    "viability at 72 h, 1000 ng/mL": 90.3
  }
]
